# ASSAY TARGET: Muscarinic acetylcholine receptor M2 (Homo sapiens)
# Sequence (P08172 whole entry): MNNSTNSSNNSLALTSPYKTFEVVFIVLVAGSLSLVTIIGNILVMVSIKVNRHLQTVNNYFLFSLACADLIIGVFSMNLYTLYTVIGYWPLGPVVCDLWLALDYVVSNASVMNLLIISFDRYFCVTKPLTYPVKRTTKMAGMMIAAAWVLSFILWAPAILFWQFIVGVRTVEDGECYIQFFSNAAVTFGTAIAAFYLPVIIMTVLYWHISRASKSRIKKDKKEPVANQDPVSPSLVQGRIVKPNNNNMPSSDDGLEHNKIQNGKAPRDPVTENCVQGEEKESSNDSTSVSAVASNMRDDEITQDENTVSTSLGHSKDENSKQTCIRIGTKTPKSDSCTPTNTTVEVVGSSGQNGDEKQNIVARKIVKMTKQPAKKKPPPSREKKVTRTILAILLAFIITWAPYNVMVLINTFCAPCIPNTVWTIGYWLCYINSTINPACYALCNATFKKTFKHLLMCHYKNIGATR
# TEST DESCRIPTION: Ratio of binding affinity to human muscarinic acetylcholine receptor M2 expressed in CHOK9 cells assessed as dissociation rate constant to binding affinity to human muscarinic acetylcholine receptor M2 expressed in CHOK9 cells assessed as association rate constant
# Format: cell-based
VALUE KIND: pKd
Answers are plain numbers, as −log10 of the molar value.

[
  {
    "COMPOUND": "[3H]CC([3H])C(=O)NCCNC(=O)CCc1cn(CCCCC2CCN(CC(=O)N3c4ccccc4NC(=O)c4ccccc43)CC2)cn1 (configuration not stated)",
    "pKd": 9.15
  }
]

Task: GET /values?readout=pKd&item= O=C(O)C(F)(F)F.O=C(O)C(F)(F)F.O=C(O)C(F)(F)F.O=C(O)C(F)(F)F.[3H]CC([3H])C(=O)NCc1cc(C(=O)NCCNC(=O)CCc2cn(CCCCC3CCN(CC(=O)N4c5ccccc5NC(=O)c5ccccc54)CC3)cn2)cc(C(=O)NCCNC(=O)CCc2cn(CCCCC3CCN(CC(=O)N4c5ccccc5NC(=O)c5ccccc54)CC3)cn2)c1 (configuration not stated)
Result: 9.70
